- Test system: Panc 05.04 cells (SF3b K700E mutant)
- EXPERIMENTAL_DETAILS: Cell proliferation and viability, CellTiter-Glo, 72 hours
- Format: cell-based
- EXPERIMENTAL_SETUP: Panc 05.04, read-out: CTGlo-ATS GMean GI50 (nM) 72 h PANC0504.1; PANC0504.1 cells, 72 h; geometric mean
Returns: string. Value is fulfilled if measured GI50 is below 9 nM, and not fulfilled if it is greater than or equal to it.

Exercise: I wonder whether C/C(=C\c1cccc2c1c(C)nn2C)[C@H]1OC(=O)C[C@H](O)CC[C@H](C)[C@@H](OC(=O)N2CCN(C)CC2)/C=C/[C@@H]1C [Compound 97] has GI50 below 9 nM. Can you tell?
Solution: not fulfilled

Exercise: For C/C(=C\c1cc(Cl)cc(Cl)c1)[C@H]1OC(=O)C[C@H](O)CC[C@H](C)[C@@H](OC(=O)N2CCN(C)CC2)/C=C/[C@@H]1C [Compound 48] then?
Solution: not fulfilled

Exercise: Next entry: CN[C@@H]1CCN(c2cccc(/C=C(\C)[C@H]3OC(=O)C[C@H](O)CC[C@H](C)[C@@H](OC(=O)N4CCN(C)CC4)/C=C/[C@@H]3C)c2)C1 [Compound 9]
Solution: not fulfilled

Exercise: Please give the result for C/C(=C\c1cc(F)cc(N2CCOCC2)c1)[C@H]1OC(=O)C[C@H](O)CC[C@H](C)[C@@H](OC(=O)N2CCN(C(C)C)CC2)/C=C/[C@@H]1C [Compound 24] too.
Solution: fulfilled

Exercise: Field entry: C/C(=C\c1cccc(S(=O)(=O)N2CCN(C=O)CC2)c1)[C@H]1OC(=O)C[C@H](O)CC[C@H](C)[C@@H](OC(=O)N2CCN(C)CC2)/C=C/[C@@H]1C [Compound 94]
Solution: not fulfilled

Exercise: Also, C/C(=C\c1cc(F)c2cnn(C3CCOCC3)c2c1)[C@H]1OC(=O)C[C@H](O)CC[C@H](C)[C@@H](OC(=O)N2CCN(C)CC2)/C=C/[C@@H]1C [Compound 116] please.
Solution: fulfilled

Exercise: # iterate: C/C(=C\c1cc(F)c2cn(C3CCOCC3)nc2c1)[C@H]1OC(=O)C[C@H](O)CC[C@H](C)[C@@H](OC(=O)N2CCN(C)CC2)/C=C/[C@@H]1C [Compound 117]
Solution: not fulfilled

Exercise: Proceed to C/C(=C\c1cc(F)c2nn(C3CCOCC3)nc2c1)[C@H]1OC(=O)C[C@H](O)CC[C@H](C)[C@@H](OC(=O)N2CCN(C)CC2)/C=C/[C@@H]1C [Compound 141]
Solution: not fulfilled

Exercise: Param item: C/C(=C\c1ccc2c(F)nn(CC3CC3)c2c1)[C@H]1OC(=O)C[C@H](O)CC[C@H](C)[C@@H](OC(=O)N2CCN(C)CC2)/C=C/[C@@H]1C [Compound 133]
Solution: not fulfilled

Exercise: How about C/C(=C\c1cnn(C2CCN(C)CC2)c1)[C@H]1OC(=O)C[C@H](O)CC[C@H](C)[C@@H](OC(=O)N2CCN(C)CC2)/C=C/[C@@H]1C [Compound 106] ?
Solution: not fulfilled

Exercise: Now try C/C(=C\c1cc(F)cc(N2CCOCC2)c1)[C@H]1OC(=O)C[C@H](O)CC[C@H](C)[C@@H](OC(=O)N2CCCC(N(C)C)C2)/C=C/[C@@H]1C (stereo partly shown) [Compound 40] .
Solution: fulfilled

Exercise: Try this molecule too: C/C(=C\c1cc(C)cc2[nH]ncc12)[C@H]1OC(=O)C[C@H](O)CC[C@H](C)[C@@H](OC(=O)N2CCN(C)CC2)/C=C/[C@@H]1C [Compound 96]
Solution: not fulfilled

Exercise: Would you mind doing C/C(=C\c1cc(F)cc(N2CCN(CCN3CCOCC3)C2=O)c1)[C@H]1OC(=O)C[C@H](O)CC[C@H](C)[C@@H](OC(=O)N2CCN(C)CC2)/C=C/[C@@H]1C [Compound 67] as well?
Solution: fulfilled

Exercise: And the next one, C/C(=C\c1cc(F)cc(N2CCN(S(=O)(=O)c3cccnc3)CC2)c1)[C@H]1OC(=O)C[C@H](O)CC[C@H](C)[C@@H](OC(=O)N2CCN(C)CC2)/C=C/[C@@H]1C [Compound 112] ?
Solution: fulfilled

Exercise: Moving on to C/C(=C\c1cc(F)cc(N2CCN(C(=O)C3CC3)CC2)c1)[C@H]1OC(=O)C[C@H](O)CC[C@H](C)[C@@H](OC(=O)N2CCN(C)CC2)/C=C/[C@@H]1C [Compound 109]
Solution: fulfilled

Exercise: Lookup C/C(=C\c1cc(Cl)cc(N2CCOCC2)c1)[C@H]1OC(=O)C[C@H](O)CC[C@H](C)[C@@H](OC(=O)N2CCN(C)CC2)/C=C/[C@@H]1C [Compound 20]
Solution: not fulfilled

Exercise: Continue with CN[C@@H]1CCN(c2cc(F)cc(/C=C(\C)[C@H]3OC(=O)C[C@H](O)CC[C@H](C)[C@@H](OC(=O)N4CCN(C)CC4)/C=C/[C@@H]3C)c2)C1 [Compound 45]
Solution: not fulfilled

Exercise: Also need C/C(=C\c1cc(F)cc(N2CCCC2=O)c1)[C@H]1OC(=O)C[C@H](O)CC[C@H](C)[C@@H](OC(=O)N2CCN(C)CC2)/C=C/[C@@H]1C [Compound 42] , thanks.
Solution: fulfilled

Exercise: Thanks! And C/C(=C\c1cc(F)c2cnn(CC(=O)N3CCOCC3)c2c1)[C@H]1OC(=O)C[C@H](O)CC[C@H](C)[C@@H](OC(=O)N2CCN(C)CC2)/C=C/[C@@H]1C [Compound 130] ?
Solution: not fulfilled

Exercise: Then C/C(=C\c1cc(F)c2nn(CC3CC3)nc2c1)[C@H]1OC(=O)C[C@H](O)CC[C@H](C)[C@@H](OC(=O)N2CCN(C)CC2)/C=C/[C@@H]1C [Compound 138] ?
Solution: not fulfilled

---

- Tested on: Panc 05.04 cells (SF3b K700E mutant)
- EXPERIMENTAL_DETAILS: Cell proliferation and viability, CellTiter-Glo, 72 hours
- Assay type: cell-based
- EXPERIMENTAL_SETUP: PANC0504.1 cells, 72 h; −100% cidal, 0% static, 100% maximal growth
- Description: Cell lines were maintained in RPMI-1640 (ATCC 30-2001) supplemented with 10% fetal bovine serum (FBS). The Panc lines were supplemented in addition with insulin and FBS up to 15% total. […] Transfer of compounds from the MDR source plate to cell assay-ready plates were accomplished directly by low-energy acoustic transfer (ATS100, EDC Biosystems). […] Assay-ready plates were heat-sealed and stored at −20° C. until used, no longer than one month. […]
QUANTITY_MEASURED: CTGlo-ATS Mean MinResponse % 72 h PANC0504.1

Exercise: Recorded CTGlo-ATS Mean MinResponse % 72 h PANC0504.1 of C/C(=C\c1cc(F)cc(N2CCS(=O)(=O)CC2)c1)[C@H]1OC(=O)C[C@H](O)CC[C@H](C)[C@@H](OC(=O)N(C)C)/C=C/[C@@H]1C [Compound 51] , please.
Solution: −78.388%

Exercise: Another compound to check: C/C(=C\c1cccc(N(C)C2CCOCC2)c1)[C@H]1OC(=O)C[C@H](O)CC[C@H](C)[C@@H](OC(=O)N2CCN(C)CC2)/C=C/[C@@H]1C [Compound 170]
Solution: −96.570%

Exercise: Follow-up entry: CC(=O)N1CCC(n2nnc3c(F)cc(/C=C(\C)[C@H]4OC(=O)C[C@H](O)CC[C@H](C)[C@@H](OC(=O)N5CCN(C)CC5)/C=C/[C@@H]4C)cc32)CC1 [Compound 160]
Solution: −82.399%

---

- SYSTEM: SF3b complexes (Homo sapiens, UniProt O75533+Q7RTV0)
- Construct: endogenous in cells; host or cells: Nuclear extracts; A HeLa S3 extract preparation is described for the in vitro splicing assay
- EXPERIMENTAL_DETAILS: Scintillation proximity assay (SPA) with [3H]-labelled pladienolide probe
- Type: binding
- EXPERIMENTAL_SETUP: SF3B1 (WT); geometric mean; read-out: SPA-ATS GMean IC50 (nM) SF3B1 (WT)
QUANTITY_MEASURED: IC50 (nM)
Could you give me the number in nM? Just the number is fine.

Exercise: Quick one: IC50 of C/C(=C\c1cccc(S(=O)(=O)NC(C)(C)C)c1)[C@H]1OC(=O)C[C@H](O)CC[C@H](C)[C@@H](OC(=O)N2CCN(C)CC2)/C=C/[C@@H]1C ?
Solution: 1.77

Exercise: What do we get for C/C(=C\c1cc(N2CCOCC2)ccc1F)[C@H]1OC(=O)C[C@H](O)CC[C@H](C)[C@@H](OC(=O)N2CCN(C)CC2)/C=C/[C@@H]1C ?
Solution: 2.88

Exercise: Then this molecule: C/C(=C\c1cc(F)cc(N(C)C2CCN(C(=O)Nc3ccccc3)CC2)c1)[C@H]1OC(=O)C[C@H](O)CC[C@H](C)[C@@H](OC(=O)N2CCN(C)CC2)/C=C/[C@@H]1C
Solution: 127

Exercise: Param item: C/C(=C\c1cc(F)c2nnn(C3CCN(C(=O)OC(C)(C)C)CC3)c2c1)[C@H]1OC(=O)C[C@H](O)CC[C@H](C)[C@@H](OC(=O)N2CCN(C)CC2)/C=C/[C@@H]1C
Solution: 12.9

Exercise: Please give the result for C/C(=C\c1cccc(S(=O)(=O)N2CCCC2)c1)[C@H]1OC(=O)C[C@H](O)CC[C@H](C)[C@@H](OC(=O)N2CCN(C)CC2)/C=C/[C@@H]1C too.
Solution: 2.3

Exercise: Can you check C/C(=C\c1cc(F)cc(N2CCN(C(=O)Cn3cccn3)CC2)c1)[C@H]1OC(=O)C[C@H](O)CC[C@H](C)[C@@H](OC(=O)N2CCOCC2)/C=C/[C@@H]1C next?
Solution: 15.9

Exercise: For C/C(=C\c1cc(F)cc(N2CCN(C(=O)c3cnco3)CC2)c1)[C@H]1OC(=O)C[C@H](O)CC[C@H](C)[C@@H](OC(=O)N2CCN(C)CC2)/C=C/[C@@H]1C then?
Solution: 1.7
